- Test system: Sclerotinia sclerotorum
- method: Radial growth of the mycelium
- Type: cell-based
- settings: 168 h, time 7 days (day control colonized the whole Petri dish)

- smiles.repr: "O=C(O)CCCc1ccccc1"
  EC50 (µM): 1900

###

- Test system: Fusarium verticilloides
- method: Radial growth of the mycelium
- Assay type: cell-based
- settings: 288 h, time 12 days (day control colonized the whole Petri dish)
parameter: EC50 (µM)

- smiles.repr: "O=C(O)CCCc1ccccc1"
  readout.value: 500

###

- Test system: Cercospora beticola
- method: Radial growth of the mycelium
- Format: cell-based
- settings: 528 h, time 22 days (day control colonized the whole Petri dish)
pEC50: −log10 of the molar value.

- molecule: "O=C(O)CCCc1ccccc1 [4-PBA, 4-Phenylbutyric acid]"
  pEC50: 2.55
